Task for the reader: assign each of the following molecules its reported pIC50.
biological target: androgen receptor (AR) (Homo sapiens, UniProt P10275, T878A); assay: Androgen-induced PSA (6.1 kb)-luciferase reporter assay in LNCaP cells (R1881 1 nM); format: cell-based; parameters: endogenous in cells; host or cells: LNCaP; conditions: 24 h, read-out: PSA-Luc IC50 Range
Sequence (P10275 whole entry T878A): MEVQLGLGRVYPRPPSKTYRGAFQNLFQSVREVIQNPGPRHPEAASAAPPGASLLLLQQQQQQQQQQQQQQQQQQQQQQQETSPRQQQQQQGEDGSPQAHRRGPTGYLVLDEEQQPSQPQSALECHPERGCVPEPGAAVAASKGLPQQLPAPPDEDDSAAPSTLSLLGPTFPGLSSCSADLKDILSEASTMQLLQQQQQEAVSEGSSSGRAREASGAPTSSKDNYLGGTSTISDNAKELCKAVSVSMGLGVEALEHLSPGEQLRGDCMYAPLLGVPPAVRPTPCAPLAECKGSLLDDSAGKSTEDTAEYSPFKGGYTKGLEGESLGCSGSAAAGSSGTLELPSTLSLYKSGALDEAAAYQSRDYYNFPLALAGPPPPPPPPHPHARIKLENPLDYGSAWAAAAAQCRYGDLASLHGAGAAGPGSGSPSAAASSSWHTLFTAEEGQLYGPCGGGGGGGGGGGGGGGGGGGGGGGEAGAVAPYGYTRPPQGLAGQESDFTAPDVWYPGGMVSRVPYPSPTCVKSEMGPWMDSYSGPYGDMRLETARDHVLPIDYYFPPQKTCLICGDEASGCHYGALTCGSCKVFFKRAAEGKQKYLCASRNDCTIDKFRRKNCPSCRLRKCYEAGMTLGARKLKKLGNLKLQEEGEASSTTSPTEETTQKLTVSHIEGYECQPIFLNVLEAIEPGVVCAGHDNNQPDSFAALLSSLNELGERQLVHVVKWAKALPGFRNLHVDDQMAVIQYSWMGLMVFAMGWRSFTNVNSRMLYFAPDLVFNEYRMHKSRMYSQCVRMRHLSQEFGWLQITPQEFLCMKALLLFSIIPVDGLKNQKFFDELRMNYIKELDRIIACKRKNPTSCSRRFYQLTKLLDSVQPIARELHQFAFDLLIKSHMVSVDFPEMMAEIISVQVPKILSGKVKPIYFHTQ
pIC50: −log10 of the molar value.

I would be grateful if you could share the reported pIC50 for CC(C)(c1ccc(-c2cnc3c(NS(C)(=O)=O)nccc3c2)cc1)c1cc(Cl)c(OCCCl)c(C#N)c1 .
> 6.30

Fill in: pIC50 of CC1(NS(C)(=O)=O)CN(CCc2ccc3c(ccn3-c3cc(Cl)c(OCCCl)c(C#N)c3)c2)C1 is ___
< 5.70

Reported pIC50, molecule CS(=O)(=O)Nc1nccc(COc2ccc3c(ccn3-c3cc(Cl)c(OCC4COC4)c(C#N)c3)c2)n1 : ____
< 5.70

Which pIC50 value belongs to CS(=O)(=O)N[C@H]1C[C@H](COc2ccc3c(ccn3-c3cc(Cl)c(OCCCl)c(C#N)c3)c2)C1 ?
5.70 to 6.30

Query (molecule): CC(C)(c1ccc(OCc2ccnc(NS(C)(=O)=O)c2F)cc1)c1cc(Cl)c(OCCCl)c(C#N)c1 ; field requested: pIC50
5.70 to 6.30

GET /values?readout=pIC50&item= CC(C)(c1ccc(OCc2ccnc(NS(C)(=O)=O)n2)cc1)c1cc(F)c(N2CCOCC2)c(C#N)c1
5.70 to 6.30

# get_value(readout='pIC50', item= Cn1cc(-c2cc(Cl)c(OCCCl)c(C#N)c2)c2ccc(OCc3ccnc(NS(C)(=O)=O)n3)cc21 )
5.70 to 6.30

# input molecule: CS(=O)(=O)NC12CC(COc3ccc4c(c3)CCC4c3cc(Cl)c(OCCCl)c(C#N)c3)(C1)C2 (centres unmarked) ; wanted: its pIC50
5.70 to 6.30

Could you share which pIC50 value was measured for CS(=O)(=O)Nc1nccc(COc2ccc3c(ccn3-c3ccn(CCCCl)c(=O)c3)c2)n1 ?
< 5.70

Entry under review: CS(=O)(=O)N1CCN(CCc2ccc3c(ccn3-c3cc(Cl)c(OCCCl)c(C#N)c3)c2)CC1 . Reported pIC50?
5.70 to 6.30

Would you mind telling me what pIC50 value was observed for CC(C)(c1ccc(-c2ccc3nc(NS(C)(=O)=O)sc3c2)cc1)c1cc(Cl)c(OCCCl)c(C#N)c1 ?
> 6.30

###

Assignment: determine reported IC50 for the given molecules.
target: androgen receptor (AR) (Homo sapiens, UniProt P10275, T878A); assay: Androgen-induced PSA (6.1 kb)-luciferase reporter assay in LNCaP cells (R1881 1 nM); type: cell-based; design: endogenous in cells; host or cells: LNCaP; details: 24 h, read-out: PSA-Luc IC50 Range

Value lookup for IC50; key = CC(C)(c1ccc(OCc2ccnc(NS(C)(=O)=O)n2)cc1)c1cc(F)c(N2CCC2)c(C#N)c1 [Compound A251]
500 to 2000 nM

Would you mind telling me what IC50 value was observed for CC(C)(c1ccc(OCc2cnc(NS(C)(=O)=O)nc2N2CCOCC2)cc1)c1cc(Cl)c(OCCCl)c(C#N)c1 [Compound A100] ?
< 500 nM

IC50 lookup needed for CC(C)(c1ccc(-c2ccc3nc(N)ncc3c2)cc1)c1cc(Cl)c(OCCCl)c(C#N)c1 [Compound A177] , thanks.
500 to 2000 nM

Which IC50 value is on record for CS(=O)(=O)N[C@@H]1CC[C@H](Oc2ccc3c(ccn3-c3cc(Cl)c(OCCCl)c(C#N)c3)c2)C1 [Compound A233] ?
500 to 2000 nM

For the molecule shown here, CS(=O)(=O)N1CCC(CCOc2ccc3c(ccn3-c3cc(Cl)c(OCCCl)c(C#N)c3)c2)CC1 [Compound A190] , give the reported IC50.
> 2000 nM

# lookup: IC50 of COc1c(Cl)cc(C(C)(C)c2ccc(OCC34CC(NS(C)(=O)=O)(C3)C4)cc2)cc1C#N [Compound A268]
500 to 2000 nM

Item under review: CCNc1ncc2cc(-c3ccc(C(C)(C)c4cc(Cl)c(OCCCl)c(C#N)c4)cc3)ccc2n1 [Compound A176] . Reported IC50?
> 2000 nM

# lookup: IC50 of CC(C)(c1ccc(-c2cnc3c(c2)C(NS(C)(=O)=O)CCC3)cc1)c1cc(Cl)c(OCCCl)c(C#N)c1 (stereo not shown) [Compound A243]
> 2000 nM

Fill in: IC50 of CS(=O)(=O)NC12CC(C(=O)Nc3ccc4c(ccn4-c4cc(Cl)c(OCCCl)c(C#N)c4)c3)(C1)C2 [Compound A133] is ___
> 2000 nM

Need IC50, item CS(=O)(=O)Nc1ncc(Cn2ncc3c(-c4cc(Cl)c(OCCCl)c(C#N)c4)cccc32)cn1 [Compound A144]
500 to 2000 nM

State the recorded IC50 for this entry: CS(=O)(=O)N[C@H]1CC[C@H](COc2ccc3c(ccn3-c3cc(Cl)c(OCCCl)c(C#N)c3)c2)CC1 [Compound A58]
> 2000 nM

Data request, read-out IC50, for CC(C)(c1ccc(-c2ccc3nc(NS(C)(=O)=O)nc(N4CCOCC4)c3c2)cc1)c1cc(Cl)c(OCCCl)c(C#N)c1 [Compound A196]
500 to 2000 nM

# IC50 lookup, item CC(C)(c1ccc(OCc2ccnc(NS(C)(=O)=O)n2)cc1)c1cc(F)c(N2CC3(CCC3)C2)c(C#N)c1 [Compound A240]
> 2000 nM

Hello, the source for this data is patent US20220380378A1, in case you need it.
